# MEASUREMENT DESCRIPTION: Pharmacokinetics study of KPT-335 in cats (i.v. injection, p.o. capsules and tablets; UPLC-MS/MS, non-compartmental analysis)
# Assay type: in vivo
# DETAILS: both sexes, plasma, po, 2 mg/kg, cats, p.o., Tablet, Feeding, 2 mg/kg BW; read-out: Cmax
# Protocol: In this study, a parallel trial design was employed, 42 adult domestic cats (21 males and 21 females), aged 1 to 2 years and weighing 2.5 ± 0.25 kg. Cats were grouped by random number, with half male and female in each group, and all cats were determined to be systemically healthy during an initial screening visit 1 week prior to the experiment. They were acclimatized to the laboratory environment for 7 days before the study commenced. […]

MOL | U | Cmax
O=C(/C=C\n1cnc(-c2cc(C(F)(F)F)cc(C(F)(F)F)c2)n1)NNc1ccccn1 | ng/mL | 559

----------
# MEASUREMENT DESCRIPTION: Pharmacokinetics study of KPT-335 in cats (i.v. injection, p.o. capsules and tablets; UPLC-MS/MS, non-compartmental analysis)
# Assay type: in vivo
# DETAILS: both sexes, cat, plasma, po, 1 mg/kg, cats, tablet p.o. 1 mg/kg BW after feeding, 32 h, mean
ASSAY READOUT: concentration at 32 h

MOL | ASSAY READOUT | OBSERVED
O=C(/C=C\n1cnc(-c2cc(C(F)(F)F)cc(C(F)(F)F)c2)n1)NNc1ccccn1 | concentration at 32 h | 3.37 ng/mL

----------
# MEASUREMENT DESCRIPTION: Pharmacokinetics study of KPT-335 in cats (i.v. injection, p.o. capsules and tablets; UPLC-MS/MS, non-compartmental analysis)
# Format: in vivo
# DETAILS: both sexes, plasma, po, 0.2 mg/kg, cats, p.o., Capsule, Fasting, 0.2 mg/kg BW; read-out: F (absolute bioavailability)
ASSAY READOUT: bioavailability (%)

MOL | OBSERVED
O=C(/C=C\n1cnc(-c2cc(C(F)(F)F)cc(C(F)(F)F)c2)n1)NNc1ccccn1 | 43.7

----------
# MEASUREMENT DESCRIPTION: Pharmacokinetics study of KPT-335 in cats (i.v. injection, p.o. capsules and tablets; UPLC-MS/MS, non-compartmental analysis)
# Type: in vivo
# DETAILS: both sexes, plasma, po, cats, doses of 0.2–1 mg/kg BW; read-out: absolute bioavailability of capsules

MOL | bioavailability
O=C(/C=C\n1cnc(-c2cc(C(F)(F)F)cc(C(F)(F)F)c2)n1)NNc1ccccn1 | ~40%

----------
# MEASUREMENT DESCRIPTION: Pharmacokinetics study of KPT-335 in cats (i.v. injection, p.o. capsules and tablets; UPLC-MS/MS, non-compartmental analysis)
# Type: in vivo
# DETAILS: both sexes, cat, plasma, po, 1 mg/kg, cats, p.o., Tablet, Feeding, 1 mg/kg BW; read-out: AUClast

MOL | AUC(0-t) (ng·h/mL)
O=C(/C=C\n1cnc(-c2cc(C(F)(F)F)cc(C(F)(F)F)c2)n1)NNc1ccccn1 | 2270

----------
# MEASUREMENT DESCRIPTION: Pharmacokinetics study of KPT-335 in cats (i.v. injection, p.o. capsules and tablets; UPLC-MS/MS, non-compartmental analysis)
# Type: in vivo
# DETAILS: both sexes, cat, plasma, po, 0.2 mg/kg, cats, capsule p.o. 0.2 mg/kg BW, 12 h, mean
ASSAY READOUT: concentration at 12 h

MOL | OBSERVED
O=C(/C=C\n1cnc(-c2cc(C(F)(F)F)cc(C(F)(F)F)c2)n1)NNc1ccccn1 | 9.36 ng/mL

----------
# MEASUREMENT DESCRIPTION: Pharmacokinetics study of KPT-335 in cats (i.v. injection, p.o. capsules and tablets; UPLC-MS/MS, non-compartmental analysis)
# Type: in vivo
# DETAILS: both sexes, cat, plasma, iv, 1 mg/kg, cats, i.v. 1 mg/kg BW, 4 h, mean; read-out: Plasma concentration Mean
ASSAY READOUT: concentration at 4 h (ng/mL)

MOL | OBSERVED
O=C(/C=C\n1cnc(-c2cc(C(F)(F)F)cc(C(F)(F)F)c2)n1)NNc1ccccn1 | 255

----------
# MEASUREMENT DESCRIPTION: Pharmacokinetics study of KPT-335 in cats (i.v. injection, p.o. capsules and tablets; UPLC-MS/MS, non-compartmental analysis)
# Type: in vivo
# DETAILS: female, plasma, po, 1 mg/kg, female cats, p.o., Capsule, Fasting, 1 mg/kg BW; read-out: Cmax Value females

MOL | U | Cmax
O=C(/C=C\n1cnc(-c2cc(C(F)(F)F)cc(C(F)(F)F)c2)n1)NNc1ccccn1 | ng/mL | 284

----------
# MEASUREMENT DESCRIPTION: Pharmacokinetics study of KPT-335 in cats (i.v. injection, p.o. capsules and tablets; UPLC-MS/MS, non-compartmental analysis)
# Type: in vivo
# DETAILS: both sexes, cat, plasma, po, 1 mg/kg, cats, tablet p.o. 1 mg/kg BW after feeding, 2 h, mean; read-out: Plasma concentration Mean

MOL | U | concentration at 2 h
O=C(/C=C\n1cnc(-c2cc(C(F)(F)F)cc(C(F)(F)F)c2)n1)NNc1ccccn1 | ng/mL | 304

----------
# MEASUREMENT DESCRIPTION: Pharmacokinetics study of KPT-335 in cats (i.v. injection, p.o. capsules and tablets; UPLC-MS/MS, non-compartmental analysis)
# Format: in vivo
# DETAILS: both sexes, cat, plasma, po, 1 mg/kg, cats, capsule p.o. 1 mg/kg BW, 8 h, mean
ASSAY READOUT: concentration at 8 h (ng/mL)

MOL | ASSAY READOUT | OBSERVED
O=C(/C=C\n1cnc(-c2cc(C(F)(F)F)cc(C(F)(F)F)c2)n1)NNc1ccccn1 | concentration at 8 h | 53.1

----------
# MEASUREMENT DESCRIPTION: Pharmacokinetics study of KPT-335 in cats (i.v. injection, p.o. capsules and tablets; UPLC-MS/MS, non-compartmental analysis)
# Assay type: in vivo
# DETAILS: both sexes, cat, plasma, po, 1 mg/kg, cats, capsule p.o. 1 mg/kg BW, 1 h, mean; read-out: Plasma concentration Mean

MOL | concentration at 1 h
O=C(/C=C\n1cnc(-c2cc(C(F)(F)F)cc(C(F)(F)F)c2)n1)NNc1ccccn1 | 233 ng/mL

----------
# MEASUREMENT DESCRIPTION: Pharmacokinetics study of KPT-335 in cats (i.v. injection, p.o. capsules and tablets; UPLC-MS/MS, non-compartmental analysis)
# Type: in vivo
# DETAILS: both sexes, cat, plasma, po, 1 mg/kg, cats, tablet p.o. 1 mg/kg BW after fasting, 0.167 h, individual cats 1-6; read-out: Plasma concentration

MOL | concentration at 0.167 h, ng/mL
O=C(/C=C\n1cnc(-c2cc(C(F)(F)F)cc(C(F)(F)F)c2)n1)NNc1ccccn1 | 5.51

----------
# MEASUREMENT DESCRIPTION: Pharmacokinetics study of KPT-335 in cats (i.v. injection, p.o. capsules and tablets; UPLC-MS/MS, non-compartmental analysis)
# Type: in vivo
# DETAILS: female, plasma, iv, 1 mg/kg, female cats, i.v., Injection, 1 mg/kg BW; read-out: Cmax Value females

MOL | U | Cmax
O=C(/C=C\n1cnc(-c2cc(C(F)(F)F)cc(C(F)(F)F)c2)n1)NNc1ccccn1 | ng/mL | 886

----------
# MEASUREMENT DESCRIPTION: Pharmacokinetics study of KPT-335 in cats (i.v. injection, p.o. capsules and tablets; UPLC-MS/MS, non-compartmental analysis)
# Type: in vivo
# DETAILS: both sexes, plasma, po, 2 mg/kg, cats, p.o., Tablet, Feeding, 2 mg/kg BW; read-out: Tmax

COMPOUND | U | Tmax
O=C(/C=C\n1cnc(-c2cc(C(F)(F)F)cc(C(F)(F)F)c2)n1)NNc1ccccn1 [KPT-335] | h | 1.58

----------
# MEASUREMENT DESCRIPTION: Pharmacokinetics study of KPT-335 in cats (i.v. injection, p.o. capsules and tablets; UPLC-MS/MS, non-compartmental analysis)
# Assay type: in vivo
# DETAILS: both sexes, plasma, po, 1 mg/kg, cats, p.o., Tablet, Feeding, 1 mg/kg BW; read-out: AUClast
ASSAY READOUT: AUC(0-t)

COMPOUND | OBSERVED
O=C(/C=C\n1cnc(-c2cc(C(F)(F)F)cc(C(F)(F)F)c2)n1)NNc1ccccn1 [KPT-335] | 2250 ng·h/mL

----------
# MEASUREMENT DESCRIPTION: Pharmacokinetics study of KPT-335 in cats (i.v. injection, p.o. capsules and tablets; UPLC-MS/MS, non-compartmental analysis)
# Format: in vivo
# DETAILS: both sexes, cat, plasma, po, 2 mg/kg, cats, p.o., Tablet, Feeding, 2 mg/kg BW; read-out: AUClast

COMPOUND | AUC(0-t) (ng·h/mL)
O=C(/C=C\n1cnc(-c2cc(C(F)(F)F)cc(C(F)(F)F)c2)n1)NNc1ccccn1 [KPT-335] | 3000
